Data origin, for the record: paper PMC3817407

- measurement target: T1, ECF25_1645
- T1 chain: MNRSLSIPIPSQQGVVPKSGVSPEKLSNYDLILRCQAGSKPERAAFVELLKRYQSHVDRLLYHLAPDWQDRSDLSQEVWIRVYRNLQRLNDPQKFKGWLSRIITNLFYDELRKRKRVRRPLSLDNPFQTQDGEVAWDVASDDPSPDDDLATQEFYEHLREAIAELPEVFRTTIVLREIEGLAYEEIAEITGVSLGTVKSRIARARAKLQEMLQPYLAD
observable: fold repression
Number, no unit, nothing else.

AS27_1331 (protein) MSAADKDPDKHSADADPPLTVELLADLQAGLLDDATAARIRSRVRSDPQAQQILRALNRVRRDVAAMGADPAWGPAARPAVVDSISAALRSARPNSSPGAAHAARPHVHPVRMIAGAAGLCAVATAIGVGAVVDAPPPAPSAPTTAQHITVSKPAPVIPLSRPQVLDLLHHTPDYGPPGGPLGDPSRRTSCLSGLGYPASTPVLGAQPIDIDARPAVLLVIPADTPDKLAVFAVAPHCSAADTGLLASTVVPRA = 3.12

In the following, a different binder is considered.
The reported value for AS16_973 (protein) MKTDDLIALLAAGEGPVPRHAVGRRMAVAALGGLTAALLLTITLYGVRSDITEVAQTPLFWGKVAFPTSLALIGLWLTSRLARPGGKGAAGWKMLGLPLLLVWCGAAVSIAGAPVDARADLLFGRTWRTCALNIALLSVPAFVTVFWALKGLAPTRLRLAGAAGGLLAGSSATVAYCLHCPEMGVPFWGVWYVLGMLVPTVLGAWWGPRMLRW in terms of fold repression is 0.538
